# protocol_description: Viability qHTS for spleen associated tyrosine kinase inhibitor (SYKi) naive MV4-11 cells (AID 1963823); further: nearly all actives have a fitted effect of over 40% in size
# condition_description: MV4-11 AML viability, CellTiter-Glo luminescence, 72 h; series mostly up to 45 µM
Results filed as inconclusive are left out. Active and inactive are the calls of the source. The call rests on the fitted dose curve; in most records, active means well fitted cell-killing curve with a large enough effect; inconclusive means small, poorly fitted or top-dose-only effect, or effect the other way; inactive means no such curve, though single readings can be large or run the other way.
Possible outcomes: true (active), false (inactive)

| compound | category_label |
| --- | --- |
| CC1=CC(=O)C2C(C)(C)CCC[C@]2(C)[C@H]1CO (stereo not given in full) | false |
| O=C1OCCN1/N=C/c1ccc([N+](=O)[O-])o1 | false |
| COc1ccccc1NC(=O)OCC1CCN(C(=O)OC(C)(C)C)CC1 | false |
| COc1cc2ncnc(Nc3ccc(F)c(Cl)c3)c2cc1NC(=O)/C=C/CN1CCCCC1 | true |
| OCC1OC(Oc2cc(O)cc(/C=C/c3ccc(OC4OC(CO)C(O)C(O)C4O)cc3O)c2)C(O)C(O)C1O (stereo not given) | false |
| CO[C@@H]1CC(OC2CCC3(C)C(CCC45CCC(C6=CC(=O)OC6)C(C)(CCC43)C5=O)C2)O[C@H](C)[C@@H]1O[C@@H]1O[C@H](CO[C@@H]2O[C@H](CO)[C@@H](O)[C@H](O)[C@H]2O)[C@@H](O)[C@H](O)[C@H]1O (stereo not given in full) | true |
| C/C=C/C=C/C=C/C(=O)O[C@@H]1C=C(CO)C(O)(C(=O)O)[C@@]2(C)CCCC(C)(C)[C@H]12 (stereo not given in full) | false |
| CC(C)N(CCC(=O)c1ccc2ccccc2c1)Cc1ccccc1 | true |
| CCC(C)/C=C(C)/C=C/C1=CC2=C(Cl)C(=O)C(C)(OC(C)=O)C(=O)C2=CN1C(CC(=O)O)C(=O)O (stereo not given) | false |
| C=C(c1ccc(C(=O)O)cc1)c1cc2c(cc1C)C(C)(C)CCC2(C)C | true |

* * *

# protocol_description: Quantitative highthroughput screen to assess conditional lethalithy of P12 Ichikawa cells grown in RPMI1640 with untreated serum (RPMI+s) (AID 1963881); further: nearly all actives have a fitted effect of over 35% in size
# condition_description: ATP luminescence, 48 h; viability; series mostly up to 45.8 µM
Records with an inconclusive call do not appear. Activity calls are given as the source filed them. Calls follow the shape of the dose curve; as a rule, active = well fitted cell-killing curve with a large enough effect; inconclusive = small, poorly fitted or top-dose-only effect; inactive = flat fitted curve, though single readings scatter.
Possible outcomes: active, inactive

| compound | category_label |
| --- | --- |
| CCOC1OC(=O)C[C@H]1NC(=O)[C@@H]1CCCN1C(=O)[C@@H](NC(=O)c1ccc(N)c(Cl)c1)C(C)(C)C (stereo partly drawn) | active |
| CCN1CCCC1CNC(=O)c1cc(S(N)(=O)=O)ccc1OC (stereo not drawn) | inactive |
| CC1=C(CO)C(=O)O[C@@H]([C@@H](C)[C@H]2CC[C@H]3[C@@H]4C[C@H]5O[C@]56[C@@H](O)C=CC(=O)[C@]6(C)[C@@H]4CC[C@]23C)C1 | active |
| COc1ccc(CC2=NN3C([C@@H](CCc4ccccc4)[C@@H](C)O)=NC(C)C3C(=O)N2)cc1OC (stereo partly drawn) | inactive |
| Cc1nnc(C(=O)NC(C)(C)c2nc(C(=O)NCc3ccc(F)cc3)c(O)c(=O)n2C)o1 | inactive |
| Nc1nc(OCc2ccccc2)c2[nH]cnc2n1 | inactive |
| CN(C)c1nc(N(C)C)nc(N(C)C)n1 | inactive |
| C=CC[C@@H]1C=C(C)C[C@H](C)C[C@H](OC)[C@H]2O[C@@](O)(C(=O)C(=O)N3CCCC[C@H]3C(=O)O[C@H](C(C)=C[C@@H]3CC[C@H](O)[C@H](OC)C3)[C@@H](C)[C@@H](O)CC1=O)[C@@H](C)C[C@@H]2OC | active |
